src = PubChem BioAssay

- testSummary: change in splice reporter luminescence, either direction, cell-based, HEK293, spliceosome inhibition project, primary screen (AID 1101);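 note: HEK293 cells carrying a splicing-competent luciferase reporter gene; test concentration not given here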
- settings: HEK293 splicing luciferase reporter, 24 h, higher = more signal, called active from +8 up or from −8 down
The following compounds are listed with their measured z-score values.
// no unit, no text: just the number

The recorded z-score for C=CC[C@@]1(C(=O)N(C)C)N=C(c2ccc(OCCCO)cc2)O[C@@H]1c1ccccc1CN=[N+]=[N-] is -0.475

The recorded z-score for [N-]=[N+]=Nc1ccccc1[C@H]1OC(c2ccc(OCCCO)cc2)=N[C@@]1(Cc1ccccc1)C(=O)NCC(O)CO (some centres not stated) is -0.562

The recorded z-score for CCOC(=O)C1=CC[C@@H](c2ccc(OC)cc2)N(S(=O)(=O)c2ccc(C)cc2)[C@H]1c1ccc(C)cc1 is -0.0291

The recorded z-score for C=C(C)[C@@H]1CC=C(C(O)C2C=CC3C(=O)N(c4ccccc4)C(=O)C3N2Nc2ccc([N+](=O)[O-])cc2)CC1 (some centres not stated) is -0.682

---

The following compounds are listed with their measured z-score values.
- testSummary: forskolin-driven CRE-LacZ activity in PC12 – cell-based, CRE-LacZ reporter, forskolin-stimulated, primary screen (AID 1146);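 note: PC12 cells with 6xCRE LacZ reporter stimulated by forskolin 10 µM; beta-galactosidase reporter signal reflecting CREB driven transcription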
- settings: luminescence, 4.5 h, higher = more signal, called active from +8 up or from −8 down
// no unit, no text: just the number

Recorded results for 3 compounds are shown here.
compound	z-score
CC1CC/C=C\[C@H]2OC34C=CCN(CCN5CCOCC5)C(=O)[C@H]3N(CCCO)C(=O)[C@@H]4C2C(=O)O1 (stereo partly specified)	-0.0703
C=CCOC(=O)[C@@H]1[C@H]2C(=O)O[C@H](c3ccccc3)[C@H](c3ccccc3)N2[C@H](c2ccc(OCCOC(=O)[C@H]3C[C@H]4C(=O)N5CCC[C@H]5C(=O)N4[C@H]3c3cccc(OCCO)c3)cc2)[C@@]12C(=O)Nc1ccc(I)cc12	-0.206
COC(=O)C(CC#Cc1ccc2c(c1)[C@]1(C(=O)N2)[C@H](c2ccccc2OCCO)N2[C@H](c3ccccc3)[C@H](c3ccccc3)OC(=O)[C@H]2[C@@H]1C(=O)N1CCc2cc(OC)c(OC)cc2C1)C(=O)OC	0.509

The recorded z-score for COc1ccc([Si](C)(C)[C@H]2[C@H](CC(=O)N3Cc4ccccc4C[C@H]3CO)O[C@@]3(C(=O)N(c4ccccc4)c4ccccc43)[C@@H]2C)cc1 is -1.16

The recorded z-score for O=C(O)[C@H](Cc1ccccc1)n1cc(C2(O)CCCCC2)nn1 is 0.317

The recorded z-score for CC(C)C(O)C1C=CC2C(=O)NC(=O)C2N1Nc1ccccn1 (stereo unspecified) is 0.219

---

- testSummary: JC-1 mitochondrial signal, unstimulated HepG2 cells – cell-based, JC-1 fluorescence, 24 h, 100 nL compound, profiling panel (AID 1167); note: test concentration not given here
- settings: HepG2 mitochondrial potential, higher = more signal
measurementKind: z-score
// no unit, no text: just the number

molecule	z-score
COCCOC(=O)N1C(=O)[C@@]2(c3cc(C#CCNC(N)=O)ccc31)[C@H](C(=O)Nc1nc3ccccc3s1)[C@H]1C(=O)O[C@H](c3ccccc3)[C@H](c3ccccc3)N1[C@@H]2c1ccccc1OCCO	-2.73
C=CCC(OC(C)=O)[C@@H]1[C@@H](N(Cc2ccc(-c3cccc(C(F)(F)F)c3)o2)C(=O)c2ccc(-c3ccccc3)cc2)c2cc(OCCCO)ccc2N1C(=O)c1ccc2ccccc2c1 (stereo partly drawn)	2.76

Alright, here's another molecule for you.
The recorded z-score for COc1cc(C(O)C2C=CC3C(=O)N(c4ccccc4)C(=O)C3N2Nc2ccccc2)cc(OC)c1OC (stereo not drawn) is -2.43
